Data origin, for the record: patent US20210130452A1

Measured koff, listed per entry for reference.
- Measured On: T1, human IL-17A (human, UniProt Q16552 24-155, biotinylated with Sulfo-NHS-LC-Biotin in the AlphaScreen assays only)
- T1 construct: also called hIL-17A; recombinant human IL-17A
- Test Name: SPR Biacore, hIL-17A on chip; purified protein
All answers are understood in s⁻¹, so give the number only.

Worked examples follow.
Prompt: Reported koff for 01A01 (VHH, Class 4 Nanobody (cross-reactive: anti-IL-17A, IL-17F and IL-17A/F); not shown: c-myc, His6 tag) VHH: EVQLVESGGGLVQAGGSLRLSCAASGFTFDDYDIGWFRQAPGKEREGVSCFTSSDGRTFYADSVKGRFTVSADNAKNTVYLQMNSLEPEDTAVYFCAAVNTFDESAYAAFACYDVVRWGQGTQVTVSS : what is it?
Completion: 8.5e-05

Prompt: Give the measured koff of 13B03 (VHH, Class 4 Nanobody (cross-reactive: anti-IL-17A, IL-17F and IL-17A/F); also called IL17MS13B03; not shown: c-myc, His6 tag) VHH: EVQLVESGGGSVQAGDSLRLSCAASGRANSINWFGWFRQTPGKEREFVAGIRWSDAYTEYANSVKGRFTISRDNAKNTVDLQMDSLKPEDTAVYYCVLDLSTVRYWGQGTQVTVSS .
Completion: 6.3e-05

Prompt: What does the data say about its koff? Entry: 17C01 (VHH, Class 4 Nanobody (cross-reactive: anti-IL-17A, IL-17F and IL-17A/F); not shown: c-myc, His6 tag) VHH: EVQLVESGGRLVQAGGSLRLPCAASGRTFTSYPMGWFRQAPGKEREFVAAISMSGDDAAYADFVRGRFTISRDDARNTVYLHMTSLKPEDTAVYYCAARTSYDGTYDYIDDYSYWGQGTQVTVSS
Completion: 0.00029

Prompt: Give the measured koff of 04F09 (VHH, Class 2 Nanobody (anti-IL-17A and IL-17A/F); not shown: c-myc, His6 tag) VHH: EVQLVESGGGLVQPGGSLRLSCAASGRTFSTHAMGWFRQAPGKERDFVAAIRWSDGSSFYADSVKGRFTISRDNAKNAVYLQSNSLKSEDTAVYVCYADVEGPTALHKYWGRGTQVTVSS .
Completion: 0.00063

New cases:
Prompt: Data request, read-out koff, for 13B05 (VHH, Class 4 Nanobody (cross-reactive: anti-IL-17A, IL-17F and IL-17A/F); not shown: c-myc, His6 tag) VHH: EVQLVESGGRLVQAGGSLRLSCAASGRTFTSYPMGWFRQAPGKEREFVAAISMSGDDTAYTDFVRGRFTISRDDARNTVYLHMTSLKPEDTAVYYCAARTSYDGTYDYIDDYSYWGQGTQVTVSS
Completion: 0.0003

Prompt: Reported koff for 09G10 (VHH, Class 2 Nanobody (anti-IL-17A and IL-17A/F); not shown: c-myc, His6 tag) VHH: EVQLVESGGGLVQAGGSLRLSCAASDSVFTAKAVGWYRQPPGLQREWVAIITSGGKTNYADSSVKGRFTVSVDKVKNTVTLQMNSLKPEDTAVYYCYAQWMGRDYWGQGTQVTVSS : what is it?
Completion: 0.00012

Prompt: Return reported koff; argument: 18B05 (VHH, Class 4 Nanobody (cross-reactive: anti-IL-17A, IL-17F and IL-17A/F); not shown: c-myc, His6 tag) VHH: EVQLVKSGGGLVQPGGSLRLSCAASGGTFSLFAMGWFREAPGKEREFVAAIRWSDGSSYYADSVKGRFTISRDNAKNAVHLQSNSLKSEDTAVYYCYADVQGGLHRYWGQGTQVTVSS
Completion: 0.00022

Prompt: Look at this binder and give its reported koff. 11A06 (VHH, Class 2 Nanobody (anti-IL-17A and IL-17A/F); not shown: c-myc, His6 tag) VHH: EVQLVESGGGLVQPGESLRLSCKASGFSLDYYALGWFRQAPGKEREGISCITSSDASAYYTDSVKGRFTISRDNSKNTVYLQMNSLKTEDTAIYYCAAALLTCSSYYDAYTYWGQGTQVTVSS
Completion: 0.00016
